The reported numbers originate from PubChem BioAssay (NCI).

Recorded TGI, one value per entry.
tested on: OVCAR-3 ovarian; assay: NCI tumour cell line growth inhibition, 48 h

CCn1c(=N)sc2nc3ccccc3n2c1=O
> 100 µM

Consider the record given below.
What value of TGI has been recorded for this entry: C[C@H]1O[C@@H](C(C)(C)C)OC(=O)[C@@H]1C(OC(=O)c1ccccc1)c1cccc2ccccc12 (stereo partly specified) > 100 µM

----------
system: OVCAR-3 ovarian; assay: NCI tumour cell line growth inhibition, 48 h
RESULT_TYPE: TGI

Would you please look over these solved cases?
CCOC1CCN(C(=O)c2ccccc2)O1 (centres undefined)
> 10 µM
CCOC(=O)c1nc2cc(C(F)(F)F)ccc2nc1Oc1ccc(F)cc1
> 100 µM
O=C(NC1(C(=O)O)CCCC1)c1ccccc1
> 100 µM

Tell me reported TGI for CC(=O)NC1(C)C(C)C2CC1C(C)C2(C)C (centres undefined) , tested with OVCAR-3 ovarian. > 100 µM
